System: HL-60
assay text: NCI tumour cell line growth inhibition, 48 h
Activity calls are given as the source filed them. No stated cut-off is given here; in the data, active = GI50 up to about 1.1 µM and inactive = higher.
Please state which outcome applies, choosing from YES for active, NO for inactive

Consider the worked cases shown below.
compound | assay system | answer label
COc1ccc2c(c1)C(=O)c1ccccc1C2 | HL-60 | NO
CCc1cccc(C)c1NC(=O)C(=O)Cc1nc2ccccc2o1 | HL-60 | NO
CCN(CC)c1ccc(/N=N/c2ccc(-c3nc4cccnc4s3)cc2)cc1 | HL-60 | NO
COCOc1cc(OCOC)cc(C(=O)Oc2ccccc2)c1 | HL-60 | NO
CSc1nc(-c2ccccc2)c2c(n1)-c1ccccc1CC2 | HL-60 | NO

Called result for Nc1nc2ncc(SCc3ccc(C(=O)NC(CCC(=O)O)C(=O)O)cc3)cc2c(=O)[nH]1 (configuration not stated)
NO

Called result for COc1ccc2c(c1)c(=O)c1c(NCCN(C)C)ccc3c(=O)n(CCN(C)C)c(=O)n2c31
YES

Called result for O=C(Sc1sc(=S)sc1SC(=O)c1ccccc1)c1ccccc1
NO

Called result for Clc1ccc(Cl)c(/N=N/c2cc3c4c(c2)CCCN4CCC3)c1
NO

Called result for Cc1ccc(S(=O)(=O)N(CC(O)COc2ccccc2)c2c(F)c(F)cc(F)c2F)cc1 (configuration not stated)
NO

Called result for O=NN(CCCl)C(=O)NCCCl
NO

Called result for CC(=O)Nc1nc(C)c(S(=O)(=O)NC(=O)NC2NC(=O)NC2=O)s1 (configuration not stated)
NO

Called result for CCOC(=O)C[n+]1ccc2c([nH]c3cc(OC)ccc32)c1C
NO

Called result for CCN(CC)CCCNc1nc(=O)[nH]c(C)c1C(=O)Nc1c2ccccc2nc2ccccc12
NO

Called result for COc1ccc(C(NCCNC(c2ccc(OC)c(OC)c2)c2cc3c(cc2O)OCO3)c2cc3c(cc2O)OCO3)cc1OC (configuration not stated)
NO

Called result for Clc1ccc(C2=NCON=C2c2ccc(Cl)cc2)cc1
NO

Called result for O=C(c1ccccc1)c1ccc(C(c2c(O)c3ccccc3oc2=O)c2c(O)c3ccccc3oc2=O)cc1
NO

Called result for CCCCCCOc1ccc(C(=O)NOC)cc1
NO

Called result for CN(C)c1ccc2nc3c(ccc4ccccc43)[o+]c2c1
NO

Called result for Cc1ccc2nc(-n3c(/C=C/c4ccccc4O)nc4ccccc4c3=O)sc2c1
NO

Called result for C/C(=N\NC(=S)N1CCOCC1)c1nc2cccnc2[nH]1
NO

Called result for N#CCCCCCOCCOCCOCCOCCOCCCCCC#N
NO

The origin of these recorded values is ChEMBL document CHEMBL1201862.
